Run Description: soluble fraction after stress (log2 fold change); higher = more stays soluble; pooled small domains, quantitative proteomics
Run Conditions: stress: pH 4
soluble fraction (log2) vs -0.7: at or above is MET, below is NOT MET.

Study these solved cases before continuing.
- HMSSDLSNVVKIIDTLKHKKGALLPILHQIQREIGYIPLKTIDTIAKKLQQTPAEIHGVISFYHQFRTS: MET
- HMQAPAFDYSKVQEGVTVNHKIFGDGTVSWIDKARKYIRVQFSVGEKMFTMETAFVQGFLSL: NOT MET
- HMALHLPTTTINGRQYYYFKSKEKITVYGLSKRLGLTRQEIVEHNPSAVDGIKRGSTLYFPVDEFAD: MET

Hi, just wondering whether HMAPSPEGAAILRESVESVARDQVDRVALTMTARGYTTAEIAAALMVDRSTISRRLYAMRDRYHAQQDNAQ shows soluble fraction (log2) of -0.7 or higher.
MET

Hi, just wondering whether HMVEELDVQFIKLTVQGDHPWKNKKIRELSIPWDLLFVLIIRGDKSIIPNGKTTIKDGDIVVVSAPEYRG shows soluble fraction (log2) of -0.7 or higher.
NOT MET

Hi, just wondering whether HMAPRKNIRLLRAAQDKAAAEGDHETVDAIRGQIAALIETLPVQYREEYLLQEKGRENGLKLAIENAAK shows soluble fraction (log2) of -0.7 or higher.
MET

Hi, just wondering whether HMGKEIEAPDFKNMTLKEAKIAAKEYKIRIKKGDEVVSEEVEKGRIVSQDPDAGTTIKTGSTVTVNISKGL shows soluble fraction (log2) of -0.7 or higher.
MET

Hi, just wondering whether HMQNLSELAYVNLRDALMQGQMKPGEELPLRPISRSFGISATPMREALLRLVTESALEMDSRGRISVP shows soluble fraction (log2) of -0.7 or higher.
MET
